- Test system: Staphylococcus epidermidis
quantity: MIC

chem.smiles: CC(C)C[C@H](NC(=O)[C@H](CCCCN)NC(=O)CNC(=O)[C@H](C)NC(=O)[C@H](CCCCN)NC(=O)[C@H](CCCCN)NC(=O)[C@H](CC(C)C)NC(=O)[C@H](CC(C)C)NC(=O)[C@H](CCCCN)NC(=O)CNC(=O)[C@H](C)NC(=O)[C@H](CCCCN)NC(=O)[C@H](CCCCN)NC(=O)[C@H](CC(C)C)NC(=O)[C@H](CC(C)C)NC(=O)[C@@H](N)CCCCN)C(=O)N[C@@H](CC(C)C)C(=O)N[C@@H](CCCCN)C(=O)N[C@@H](CCCCN)C(=O)N[C@@H](C)C(=O)NCC(N)=O
observed.measurement: 1.56 µM

The reported measurements were obtained from DBAASP.
